Data credit: ChEMBL document CHEMBL4715721

experimental.details: Cytotoxicity against human HL7702 cells assessed as cell survival rate at 10 uM incubated for 24 hrs by MTT assay
Assay type: cell-based
condition.context: HL7702 (L02) cells, read-out: Activity
measurement.label: viability at 24 h, 10 µM (%)
Field format: number, assumed %, no unit text.

As a guide, the following entries are already answered.
# given.smiles, viability at 24 h, 10 µM (%)
data = [
    ("C=CCc1cc(/C=C2\\CN(C3CC3)C/C(=C\\c3ccc(N4CCN(C)CC4)cc3)C2=O)ccc1O", 90.3),
    ("C=CCc1cc(/C=C2\\CN(C(=O)c3c(Cl)cccc3Cl)C/C(=C\\c3ccc(O)c(CC=C)c3)C2=O)ccc1O", 79.6),
    ("C=CCc1cc(/C=C2\\CN(C(C)C)C/C(=C\\c3ccc(O)c(CC=C)c3)C2=O)ccc1O", 85.1),
]

Here is the next item to consider.
## Input # query: viability at 24 h, 10 µM of entry C=CCc1cc(/C=C2\CN(CC)C/C(=C\c3ccc(O)c(CC=C)c3)C2=O)ccc1O
## Output 79.6

###

compounds and their reported viability at 24 h, 10 µM
experimental.details: Cytotoxicity against human HL7702 cells assessed as cell survival rate at 10 uM incubated for 24 hrs by MTT assay
Assay type: cell-based
condition.context: HL7702 (L02) cells, read-out: Activity
Field format: number, assumed %, no unit text.

## Input # query: viability at 24 h, 10 µM of entry C=CCc1cc(/C=C2\CN(C(=O)c3ccc(C)cc3)C/C(=C\c3ccc(O)c(CC=C)c3)C2=O)ccc1O
## Output 70.1

## Input Now this one: C=CCc1cc(/C=C2\CN(C(=O)c3ccc(Cl)cc3)C/C(=C\c3ccc(O)c(CC=C)c3)C2=O)ccc1O
## Output 66.2

## Input Now this one: C=CCc1cc(/C=C2\CNC/C(=C\c3ccc(O)c(CC=C)c3)C2=O)ccc1O
## Output 77.9

## Input Now this one: C=CCc1cc(/C=C2\CN(CCC)C/C(=C\c3ccc(O)c(CC=C)c3)C2=O)ccc1O
## Output 75.2

## Input Now this one: C=CCc1cc(/C=C2\CN(C(=O)c3ccc(F)cc3)C/C(=C\c3ccc(O)c(CC=C)c3)C2=O)ccc1O
## Output 78

###

experimental.details: Cytotoxicity against human HL7702 cells assessed as cell survival rate at 10 uM incubated for 24 hrs by MTT assay
Format: cell-based
condition.context: HL7702 (L02) cells, read-out: Activity
measurement.label: viability at 24 h, 10 µM (%)
Field format: number, assumed %, no unit text.

As a guide, the following entries are already answered.
# given.smiles, units.label, reading
data = [
    ("C=CCc1cc(/C=C2\\CN(C)C/C(=C\\c3ccc(O)c(CC=C)c3)C2=O)ccc1O", "%", 80.3),
    ("C=CCc1cc(/C=C2\\CN(C3CC3)C/C(=C\\c3ccc(N4CCCC4)cc3)C2=O)ccc1O", "%", 95.5),
    ("C=CCc1cc(/C=C/C(=O)/C=C/c2ccc(O)c(CC=C)c2)ccc1O", "%", 73.3),
    ("C=CCc1cc(/C=C2\\CN(C3CC3)C/C(=C\\c3ccc(N(CC)CC)cc3)C2=O)ccc1O", "%", 94),
    ("C=CCc1cc(/C=C2\\CN(C3CC3)C/C(=C\\c3ccc(N(C)C)cc3)C2=O)ccc1O", "%", 89.4),
]

## Input # query: viability at 24 h, 10 µM of entry C=CCc1cc(/C=C2\CN(Cc3ccccc3)C/C(=C\c3ccc(O)c(CC=C)c3)C2=O)ccc1O
## Output 62.1
